Data provenance: ChEMBL document CHEMBL4339221

- Tested on: A549
- method_notes: Antiproliferative activity against human A549 cells assessed as cell growth at 10 uM incubated for 72 hrs by MTT assay relative to untreated control
- Format: functional
- cond: A549, 72 h, read-out: Activity
# label = Y if growth at 10 µM >= 90% else N

Given COc1ccc(C2CC(c3cccs3)=NN2C2=NC(=O)/C(=C3/C(=O)Nc4ccc(Cl)cc43)S2)cc1 (stereo unspecified) , state whether its growth at 10 µM is at least 90%. N

Given COc1ccc(C2CC(c3cccs3)=NN2C2=NC(=O)/C(=C3/C(=O)Nc4c(Br)cccc43)S2)cc1 (stereo unspecified) , state whether its growth at 10 µM is at least 90%. N

Given COc1ccc(C2CC(c3ccc4ccccc4c3)=NN2C2=NC(=O)/C(=C3/C(=O)Nc4c(Br)cccc43)S2)cc1 (stereo unspecified) , state whether its growth at 10 µM is at least 90%. Y

Given COc1ccc(C2CC(c3cccs3)=NN2C2=NC(=O)/C(=C3/C(=O)Nc4ccc(OC)cc43)S2)cc1 (stereo unspecified) , state whether its growth at 10 µM is at least 90%. N

Given COc1ccc(C2CC(c3cccs3)=NN2C2=NC(=O)/C(=C3/C(=O)Nc4ccc(C)cc43)S2)cc1 (stereo unspecified) , state whether its growth at 10 µM is at least 90%. N

Given COc1ccc(C2CC(c3ccc4ccccc4c3)=NN2C2=NC(=O)/C(=C3/C(=O)Nc4ccc(C)cc43)S2)cc1 (stereo unspecified) , state whether its growth at 10 µM is at least 90%. N
